System: NDM-1 K. pneumoniae XJ155019
Assay: MIC, broth microdilution
Format: cell-based
Conditions: Klebsiella pneumoniae, 16 h
From the text: MIC values were identified through microdilution in sterilized 96-well polypropylene microtiter plates according to the broth microdilution guideline of the Clinical and Laboratory Standards Institute[30]. The test medium was Mueller–Hinton broth (MHB), and the strain concentrations were adjusted to 5 × 10^5 CFU/mL.
quantity: MIC

Asked: Record C[C@@H](O)[C@H]1C(=O)N2C(C(=O)O)=C(SCCN=CN)C[C@H]12 [Imipenem] : what is its MIC with NDM-1 K. pneumoniae XJ155019?
Given back: 128 µg/mL

Asked: Request - read-out MIC | tested on NDM-1 K. pneumoniae XJ155019 | molecule CO/N=C(\C(=O)N[C@@H]1C(=O)N2C(C(=O)O)=C(COC(C)=O)CS[C@H]12)c1csc(N)n1 [Cefotaxime]
Given back: > 256 µg/mL

Asked: For NDM-1 K. pneumoniae XJ155019, provide MIC of CC(C)(O/N=C(\C(=O)N[C@@H]1C(=O)N2C(C(=O)[O-])=C(C[n+]3ccccc3)CS[C@H]12)c1csc(N)n1)C(=O)O [Ceftazidime] please.
Given back: > 256 µg/mL

Asked: # value lookup — system NDM-1 K. pneumoniae XJ155019, readout MIC, item C[C@@H](O)[C@H]1C(=O)N2C(C(=O)O)=C(S[C@@H]3CN[C@H](C(=O)N(C)C)C3)[C@H](C)[C@H]12 [Meropenem]
Given back: 128 µg/mL

meta.source: paper PMC6684654
